# measurement.notes: protease stability score; higher = more stable; yeast display proteolysis, trypsin and chymotrypsin;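 note: relative to predicted unfolded state with 0 unfolded-like and 1 meaning tenfold more protease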
Please mark MET if the recorded protease stability score is equal to or greater than 1, and NOT MET if it falls below.

Query string: Check the entry DEEKKLSDFAFRLLEENLRTGNEDDIRRYADPSVKIEVGDKTIHGMEAVSRVITEWRVHDLKIEREEIQGNKVHIDSNIDGQVGEKREHSLLILIMVKVNGRWVIKSIRIH : does protease stability score equal or exceed 1?
Result string: NOT MET

Query string: Can DEDEENTRKLLESYIRVFRTGDEDRMIELADPDVRLKIDGVTRHGREDWMRHWLNLVERMGANVSELTRFDVFDGQVHSHHKLVQGDKERKMHLILIKVDGRWFLHEISEQ be said to have protease stability score at or above 1?
Result string: NOT MET

Query string: Decide: is the reported value of protease stability score for SEDEKHFREALEELHRALETGDWKRLDELLDPNTRLHINGVDLIGREMVSRFYRELVEHLGINHIELRVHHIRIIGDKVEMDSELIIDVGDKHIRIDQKLDAKKVDGRWISHVESHR equal to or greater than 1?
Result string: MET

Query string: Exam item: decide whether the reported protease stability score for SEEEHDVEFVRRLQEEVWHTGDEDKLEELLDPDARAHVNGVTYHGREFVHFFYKRVDHVHHYQIEETRVVGDKLHLISRTDLVINGQRVKTELRWNITKVNGKWRVTEVRID is at least 1.
Result string: MET

Query string: Has EDEEQHTEELAHIFTEDYFTGDESSLERYLDPHVRLRIEYGDWEFSVHGRERAVDKIHWTMKQMGVKHVYLRHIRVQGDKVELNLELRVGDKVREQRIEIKVVNGRIKLVNIVIH a recorded protease stability score greater than or equal to 1?
Result string: MET

Query string: Hello, I need to know if DEQEHVAERIVNDLNHSMETGDEHRIRELVDPHVRVIIGDKELHGMEEFIRWLREFGVERIRVRLKRFSFVGNKIRLDTVMNINGQNVDTKLIIEKVDGRWLLRSIHVD has measured protease stability score not below 1. Thanks!
Result string: MET

Query string: Dear colleague, could you confirm whether DESTKEARKFKHEFDNDWKTGDEDSLLRLADPHVRTDVNGVENHGREDFVKLLMDIFREMRTEMRTRHVTVFNGRIEVHSTLHLHQGDKVIDLEVLIINRKVNGRWILESMEIK has protease stability score at or above 1?
Result string: NOT MET

Query string: Decide: is the reported value of protease stability score for SELEKFIRKYSDDWRELHRTGDFEIFQELADPHMIFHSIVGDKRTEIHGRESYIEWLREELEHWRIHHIQLRRSTAIGDFAVVDGELDGEFNGQRERRKVKVDLFVVNGQTKHIEFRIH equal to or greater than 1?
Result string: MET

Query string: Identify whether the reported protease stability score of the following sequence is 1 or greater: DEHDERMESVLRHLWHNWKTGDEDRLAELADPNTRTNINGKNFHGWEYMVREFSRFLKHIRIQDLKIRDFRVIDGRAISDVIVHGEVDGKDIDVKTRVELIIINGRFHTLSFTFE
Result string: MET

Query string: For this sequence, is measured protease stability score 1 or higher? DEERDHLLEISQRIIHSWVTGDWKLFARLIDPHARLIFHFENVDLHYHGREQVVTFIIEMRIQHIDIRRYTVQGNKVHIDGHQKIEIGDKSIRTDSEMNSIIVNGKLHETFLIFK
Result string: MET

Query string: Hi team, for DEMEEKIRTHMSLLVEYLDTGDEEITKSMLDPNTMAFYGDKLHIGREEAEEILREIRVHHLDIKRIDHQGDKIRVDGEMDGIVNGKRYRTRVEIFSTKINGRWIIEQRVIR , is the recorded protease stability score at or above 1?
Result string: MET

Query string: Check the entry SEEHEFWERLARLTLHWLETGDWDKMNKNADPNVRTEVNGQELHGRESTTEIMRRDEKFFKNARFHLESMDVQGDKVHLIFEVDYNGRTIRRHLDWVIINGRFKEIRVEIR : does protease stability score equal or exceed 1?
Result string: MET

Query string: Given SEDDHMAELASRLVHERVKTGDPRVVDELLDPNVRLEYGDKEWHGREEFRKFLRHLRLHDVHIRSYEIQGDKVYIDGRVDGEVNGKRSLLETHIYAKKIDGRWLETSVVMK , state whether its protease stability score is at least 1.
Result string: NOT MET

Query string: Please indicate if the recorded protease stability score for SEDDERWEKFMEELERAAHTGDWRFFKKMIDPEVRIDINGKEIIGMDEYIRHEKERLKRLGHTNVDIQIIIHRTERQGDKLDVDTEIRIHIGDKTITFRMTLILIKVNGVWLIKAMIIH meets or exceeds 1.
Result string: MET

Query string: // inclusive: protease stability score at least 1? input: SEDSEHAVEYMRLLRESMHTGDEKSWEDMMDPNMRILINGKDLIGWEEFSEFLRRFDHWEIRHVEIKDTKLINGRIELKGRMDIRLTINGKETSHVRNVHILSLKVNGRWILKSIEIE
Result string: MET

Query string: Does the reported protease stability score for DEEEHRVENMYHRWLHLWETGNEERLTELLDPNTRIVVGDKQIHGREEAHRVLQEFLKRADHIEEFRIHHLRVVGNKVESDTRLRGEIDGRDIDTRVHVHLLVIDGRLREINIQLE fall at or above the 1 mark?
Result string: MET

Query string: Say whether HEDEEKVKNMVRHEIQALQTGDWDHWLNLADPHVKLYIDGRINHGRHVIRFLVERFDHFRIDHYEVRSINHVDGRVRVNTQLHGQETINGVHEKHTVEVEMTIIKVNGRWYIEHLELE shows protease stability score of 1 or more.
Result string: MET

Query string: Please indicate if the recorded protease stability score for HEEEKEIEKWVRLLLEVIQTGDEHWFERMADPNARVEVGEFEKHGRELFFEMTVRIVKKLGVDHVQLRRFDLIDGVALDHMELRIGDKHVEFIHISSKVNGRWFDKEVRVREI meets or exceeds 1.
Result string: NOT MET

Query string: Kindly determine if protease stability score recorded for DENRRHELEIAQILLHAWVTGDEHILRRFADPDMQFVLEFDGKTIDLHGRELVISFFRDLVDKLGVDHITLESHRVINGRTHIDTRVIFNGVDREEKIHIHIVNGRLKHLELRVH is above or exactly 1.
Result string: MET

Query string: Is protease stability score for SEDEELSRIISHLEVDLVHTGDEDTMRKLFDPNAKSHIHVGEYNIESHGREWISILWTDLGADHRELDEIQTDVQGDKVFVNMDLTMDVDGVSHRMFIQFVSVKVDGRWTIKEINVSVI at or above 1?
Result string: MET

Query string: Kindly determine if protease stability score recorded for SEDAKLTEELFREWLTIMLTGDWEQSLRRIDPHARLIIDGRHFHGREEFSKVVKELRFKDMIDRRIHVDENEVFVDVELRGVINGREVTIKTHILIVVIDGVIHSIEIRNR is above or exactly 1.
Result string: MET
